Molecular target: His tagged PTPN2 (TC45) protein (Homo sapiens)
Construct: made in house
Sequence (P17706 with tags, fused parts or gaps isoform P17706-2): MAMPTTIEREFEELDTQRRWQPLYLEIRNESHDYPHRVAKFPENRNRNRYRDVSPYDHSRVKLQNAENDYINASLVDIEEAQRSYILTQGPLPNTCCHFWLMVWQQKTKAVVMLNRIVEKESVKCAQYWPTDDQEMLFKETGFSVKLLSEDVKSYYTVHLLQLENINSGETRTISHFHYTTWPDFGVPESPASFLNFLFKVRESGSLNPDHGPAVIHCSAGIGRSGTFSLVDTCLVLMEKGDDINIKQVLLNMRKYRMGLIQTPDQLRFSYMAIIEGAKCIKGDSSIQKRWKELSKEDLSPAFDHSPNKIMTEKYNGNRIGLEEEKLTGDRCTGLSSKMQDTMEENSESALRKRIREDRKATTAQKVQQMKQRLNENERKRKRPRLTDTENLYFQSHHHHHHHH
Experiment: Mobility shift assay (MSA) for potency of PTPN2 inhibitors
Type: biochemical
Details: read-out: PTPN2 MSA IC50
pIC50: −log10 of the molar value.
measurement_type: pIC50

- O=C1CN(c2c(O)cc3ccc(O)cc3c2F)S(=O)(=O)N1 [Compound 276]: 8.00 to 9.00
- O=C1CN(c2c(O)cc3ccc(C(CO)CCl)cc3c2F)S(=O)(=O)N1 (stereo not shown) [Compound 221]: 7.00 to 8.00
- O=C1CN(c2c(O)cc3ccc(OC4CN(S(=O)(=O)C5CC5)C4)cc3c2F)S(=O)(=O)N1 [Compound 178]: 8.00 to 9.00
- O=C1CN(c2c(O)cc3ccc(OCCOCC4CC4)cc3c2F)S(=O)(=O)N1 [Compound 212]: 8.00 to 9.00

----------
target: His tagged PTPN2 (TC45) protein (Homo sapiens); construct: made in house; assay: Mobility shift assay (MSA) for potency of PTPN2 inhibitors; format: biochemical; conditions: read-out: PTPN2 MSA IC50
measurement_type: IC50

* O=C1CN(c2c(O)cc3ccc(NCCNS(=O)(=O)C4CC4)cc3c2F)S(=O)(=O)N1 [Compound 125] | 1 to 10 nM
* CCP(=O)(CC)CCCOc1ccc2cc(O)c(N3CC(=O)NS3(=O)=O)c(F)c2c1 [Compound 146] | 1 to 10 nM
* O=C1CN(c2c(O)cc3ccc(OCC(F)(F)F)cc3c2F)S(=O)(=O)N1 [Compound 197] | 1 to 10 nM
* O=C1CN(c2c(O)cc3ccc([C@H]4CCNC4)cc3c2F)S(=O)(=O)N1 (single isomer, unassigned) [Compound 233] | 1 to 10 nM
* CCOc1ccc2cc(O)c(N3CC(=O)NS3(=O)=O)c(F)c2c1 [Compound 301] | 1 to 10 nM
* CC(C)(CC#N)CCOc1ccc2cc(O)c(N3CC(=O)NS3(=O)=O)c(F)c2c1 [Compound 115] | < 1 nM
* O=C1CN(c2c(O)cc3ccc(CNCC4CC4)cc3c2F)S(=O)(=O)N1 [Compound 161] | 10 to 100 nM
* O=C1CN(c2c(O)cc3ccc(C4=CCN(S(=O)(=O)C5CCOC5)C4)cc3c2F)S(=O)(=O)N1 (centres unmarked) [Compound 285] | < 1 nM
* CC(C)(O)CCOc1ccc2cc(O)c(N3CC(=O)NS3(=O)=O)c(F)c2c1 [Compound 182] | < 1 nM
* O=C1CN(c2c(O)cc3ccc(OCCCC(F)(F)F)cc3c2F)S(=O)(=O)N1 [Compound 158] | 1 to 10 nM
* O=C1CN(c2c(O)cc3ccc(C4=CCOC4)cc3c2F)S(=O)(=O)N1 [Compound 263] | < 1 nM
* COc1ccc2cc(O)c(N3CC(=O)NS3(=O)=O)c(F)c2c1F [Compound 205] | 10 to 100 nM
* O=C1CN(c2c(O)cc3ccc(NCCN4CCC4)cc3c2F)S(=O)(=O)N1 [Compound 177] | 1 to 10 nM
* CCCS(=O)(=O)N1CC=C(c2ccc3cc(O)c(N4CC(=O)NS4(=O)=O)c(F)c3c2)C1 [Compound 288] | < 1 nM
* N#CCCCCOc1ccc2cc(O)c(N3CC(=O)NS3(=O)=O)c(F)c2c1 [Compound 111] | < 1 nM
* O=C1CN(c2c(O)cc3ccc(OCCNCCOC(F)(F)F)cc3c2F)S(=O)(=O)N1 [Compound 137] | 1 to 10 nM
* CS(=O)(=O)N1CCC(Oc2ccc3cc(O)c(N4CC(=O)NS4(=O)=O)c(F)c3c2)CC1 [Compound 284] | 1 to 10 nM

----------
pIC50 by entry:
Molecular target: His tagged PTPN2 (TC45) protein (Homo sapiens)
Construct: made in house
Sequence (P17706 with tags, fused parts or gaps isoform P17706-2): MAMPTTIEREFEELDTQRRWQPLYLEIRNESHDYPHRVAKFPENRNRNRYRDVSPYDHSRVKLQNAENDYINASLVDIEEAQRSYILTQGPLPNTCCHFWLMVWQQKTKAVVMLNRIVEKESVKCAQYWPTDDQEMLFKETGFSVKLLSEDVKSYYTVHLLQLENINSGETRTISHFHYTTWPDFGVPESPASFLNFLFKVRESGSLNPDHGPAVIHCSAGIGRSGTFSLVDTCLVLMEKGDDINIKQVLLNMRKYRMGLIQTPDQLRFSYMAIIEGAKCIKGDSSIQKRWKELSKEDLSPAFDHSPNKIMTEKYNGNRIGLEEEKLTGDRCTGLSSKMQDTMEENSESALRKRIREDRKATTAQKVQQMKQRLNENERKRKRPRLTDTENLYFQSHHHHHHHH
Assay: Mobility shift assay (MSA) for potency of PTPN2 inhibitors
Assay type: biochemical
Conditions: read-out: PTPN2 MSA IC50
pIC50: −log10 of the molar value.
measurement_type: pIC50

• CNC(=O)CCCOc1ccc2cc(O)c(N3CC(=O)NS3(=O)=O)c(F)c2c1 = 8.00 to 9.00
• Cc1c[nH]c(-c2ccc3cc(O)c(N4CC(=O)NS4(=O)=O)c(F)c3c2)n1 = 7.00 to 8.00
• CC(C)C/C=C/c1ccc2cc(O)c(N3CC(=O)NS3(=O)=O)c(F)c2c1 = 8.00 to 9.00
• CCOCCOc1ccc2cc(O)c(N3CC(=O)NS3(=O)=O)c(F)c2c1 = 8.00 to 9.00
• O=C(O)CNc1ccc2cc(O)c(N3CC(=O)NS3(=O)=O)c(F)c2c1 = 7.00 to 8.00
• N#CCCCOc1ccc2cc(O)c(N3CC(=O)NS3(=O)=O)c(F)c2c1 = > 9.00
• O=C1CN(c2c(O)cc3ccc(CC4CCNC4)cc3c2F)S(=O)(=O)N1 (centres unmarked) = 8.00 to 9.00
• O=C1CN(c2c(O)cc3ccc(OCC4(F)CCNC4)cc3c2F)S(=O)(=O)N1 (centres unmarked) = 8.00 to 9.00

----------
Target: His tagged PTPN2 (TC45) protein (Homo sapiens, UniProt P17706)
Construct: made in house
Sequence (P17706 with tags, fused parts or gaps isoform P17706-2): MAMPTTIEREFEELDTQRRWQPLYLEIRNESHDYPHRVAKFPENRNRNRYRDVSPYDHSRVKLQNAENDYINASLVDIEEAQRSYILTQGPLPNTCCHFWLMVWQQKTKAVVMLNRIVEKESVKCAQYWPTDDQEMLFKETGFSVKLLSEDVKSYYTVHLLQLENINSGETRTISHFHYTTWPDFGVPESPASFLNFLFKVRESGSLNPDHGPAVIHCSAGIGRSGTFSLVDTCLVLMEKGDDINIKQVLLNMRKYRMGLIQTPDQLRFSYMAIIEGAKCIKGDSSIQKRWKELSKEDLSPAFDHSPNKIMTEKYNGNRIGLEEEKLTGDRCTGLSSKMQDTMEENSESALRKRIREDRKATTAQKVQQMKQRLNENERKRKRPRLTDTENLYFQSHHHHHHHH
Experiment: Mobility shift assay (MSA) for potency of PTPN2 inhibitors
Format: biochemical
Settings: read-out: PTPN2 MSA IC50
measurement_type: IC50

* O=C1CN(c2c(O)cc3ccc(C4CCCN4S(=O)(=O)C4CC4)cc3c2F)S(=O)(=O)N1 (centres unmarked) [Compound 189] | 1 to 10 nM
* O=C1CN(c2c(O)cc3ccc(C4=CCN(S(=O)(=O)C5CC5)CC4)cc3c2F)S(=O)(=O)N1 [Compound 297] | 1 to 10 nM
* CS(=O)(=O)N1CCC(Nc2ccc3cc(O)c(N4CC(=O)NS4(=O)=O)c(F)c3c2)CC1 [Compound 305] | 10 to 100 nM
* CCNCCOc1ccc2cc(O)c(N3CC(=O)NS3(=O)=O)c(F)c2c1 [Compound 144] | 1 to 10 nM
* CNCCOc1ccc2cc(O)c(N3CC(=O)NS3(=O)=O)c(F)c2c1 [Compound 143] | 1 to 10 nM
* CP(C)(=O)N1CC=C(c2ccc3cc(O)c(N4CC(=O)NS4(=O)=O)c(F)c3c2)C1 [Compound 168] | < 1 nM
* COC(C)(C)CCOc1ccc2cc(O)c(N3CC(=O)NS3(=O)=O)c(F)c2c1 [Compound 170] | < 1 nM
* C[C@H](O)CCCc1ccc2cc(O)c(N3CC(=O)NS3(=O)=O)c(F)c2c1 [Compound 153] | 1 to 10 nM
